The reported measurements were obtained from ChEMBL document CHEMBL3124843.

Listed compounds paired with reported IC50
- methodSummary: Cytostatic activity against human CEM-DNR-bulk cells after 72 hrs by MTT assay
- Format: functional, cell-based

>  <compoundSmiles>
CSc1ncnc2c1c(-c1cccs1)cn2[C@@H]1O[C@H](CO)[C@@H](O)[C@H]1O

>  <IC50>
> 20 µM

$$$$
>  <compoundSmiles>
C#Cc1cn([C@@H]2O[C@H](CO)[C@@H](O)[C@H]2O)c2nc(C)nc(N)c12

>  <IC50>
12.6 µM

$$$$
>  <compoundSmiles>
CNc1ncnc2c1ccn2[C@@H]1O[C@H](CO)[C@@H](O)[C@H]1O

>  <IC50>
4.89 µM

$$$$
>  <compoundSmiles>
C#Cc1cn([C@@H]2O[C@H](CO)[C@@H](O)[C@H]2O)c2ncnc(SC)c12

>  <IC50>
0.11 µM

$$$$
>  <compoundSmiles>
COc1ncnc2c1c(-c1ccoc1)cn2[C@@H]1O[C@H](CO)[C@@H](O)[C@H]1O

>  <IC50>
> 20 µM

$$$$
>  <compoundSmiles>
Cc1ncnc2c1c(Br)cn2[C@@H]1O[C@H](CO)[C@@H](O)[C@H]1O

>  <IC50>
> 20 µM

$$$$
>  <compoundSmiles>
CSc1ncnc2c1c(-c1ccco1)cn2[C@@H]1O[C@H](CO)[C@@H](O)[C@H]1O

>  <IC50>
0.23 µM

$$$$
>  <compoundSmiles>
CNc1ncnc2c1c(I)cn2[C@@H]1O[C@H](CO)[C@@H](O)[C@H]1O

>  <IC50>
> 20 µM

$$$$
>  <compoundSmiles>
O=c1[nH]cnc2c1c(-c1cccs1)cn2[C@@H]1O[C@H](CO)[C@@H](O)[C@H]1O

>  <IC50>
> 20 µM

$$$$
>  <compoundSmiles>
COc1nc(N)nc2c1c(-c1ccco1)cn2[C@@H]1O[C@H](CO)[C@@H](O)[C@H]1O

>  <IC50>
> 20 µM

$$$$
>  <compoundSmiles>
C#Cc1cn([C@@H]2O[C@H](CO)[C@@H](O)[C@H]2O)c2ncnc(OC)c12

>  <IC50>
3.49 µM

$$$$
>  <compoundSmiles>
Cc1nc(N)c2c(-c3ccsc3)cn([C@@H]3O[C@H](CO)[C@@H](O)[C@H]3O)c2n1

>  <IC50>
> 20 µM

$$$$
>  <compoundSmiles>
Nc1nc2c(c(-c3cc4ccccc4o3)cn2[C@@H]2O[C@H](CO)[C@@H](O)[C@H]2O)c(=O)[nH]1

>  <IC50>
> 20 µM

$$$$
>  <compoundSmiles>
CSc1ncnc2c1c(-c1ccccc1)cn2[C@@H]1O[C@H](CO)[C@@H](O)[C@H]1O

>  <IC50>
> 20 µM

$$$$
>  <compoundSmiles>
COc1nc(N)nc2c1c(-c1cc3ccccc3o1)cn2[C@@H]1O[C@H](CO)[C@@H](O)[C@H]1O

>  <IC50>
16.7 µM

$$$$
>  <compoundSmiles>
CNc1ncnc2c1c(-c1cc3ccccc3o1)cn2[C@@H]1O[C@H](CO)[C@@H](O)[C@H]1O

>  <IC50>
> 20 µM

$$$$
>  <compoundSmiles>
C#Cc1cn([C@@H]2O[C@H](CO)[C@@H](O)[C@H]2O)c2ncnc(N(C)C)c12

>  <IC50>
0.24 µM

$$$$
>  <compoundSmiles>
Cc1ncnc2c1c(-c1ccccc1)cn2[C@@H]1O[C@H](CO)[C@@H](O)[C@H]1O

>  <IC50>
> 20 µM

$$$$
>  <compoundSmiles>
CN(C)c1ncnc2c1c(-c1ccco1)cn2[C@@H]1O[C@H](CO)[C@@H](O)[C@H]1O

>  <IC50>
3.14 µM

$$$$
>  <compoundSmiles>
COc1nc(N)nc2c1c(-c1ccsc1)cn2[C@@H]1O[C@H](CO)[C@@H](O)[C@H]1O

>  <IC50>
> 20 µM

$$$$
>  <compoundSmiles>
CSc1ncnc2c1c(-c1cc3ccccc3o1)cn2[C@@H]1O[C@H](CO)[C@@H](O)[C@H]1O

>  <IC50>
> 20 µM

$$$$
>  <compoundSmiles>
O=c1[nH]cnc2c1c(-c1ccccc1)cn2[C@@H]1O[C@H](CO)[C@@H](O)[C@H]1O

>  <IC50>
> 20 µM

$$$$
>  <compoundSmiles>
Cc1ncnc2c1c(-c1ccoc1)cn2[C@@H]1O[C@H](CO)[C@@H](O)[C@H]1O

>  <IC50>
> 20 µM

$$$$
>  <compoundSmiles>
C#Cc1cn([C@@H]2O[C@H](CO)[C@@H](O)[C@H]2O)c2ncnc(C)c12

>  <IC50>
0.16 µM

$$$$
>  <compoundSmiles>
Nc1nc2c(c(-c3ccsc3)cn2[C@@H]2O[C@H](CO)[C@@H](O)[C@H]2O)c(=O)[nH]1

>  <IC50>
> 20 µM

$$$$
>  <compoundSmiles>
Cc1ncnc2c1c(-c1cccs1)cn2[C@@H]1O[C@H](CO)[C@@H](O)[C@H]1O

>  <IC50>
> 20 µM

$$$$
>  <compoundSmiles>
C#Cc1cn([C@@H]2O[C@H](CO)[C@@H](O)[C@H]2O)c2nc(N)nc(OC)c12

>  <IC50>
> 20 µM

$$$$
>  <compoundSmiles>
Nc1ncnc2c1c(-c1ccco1)cn2[C@@H]1O[C@H](CO)[C@@H](O)[C@H]1O

>  <IC50>
0.21 µM

$$$$
>  <compoundSmiles>
COc1nc(N)nc2c1c(-c1ccccc1)cn2[C@@H]1O[C@H](CO)[C@@H](O)[C@H]1O

>  <IC50>
> 20 µM

$$$$
>  <compoundSmiles>
COc1ncnc2c1c(-c1cc3ccccc3o1)cn2[C@@H]1O[C@H](CO)[C@@H](O)[C@H]1O

>  <IC50>
10.8 µM

$$$$
>  <compoundSmiles>
Cc1ncnc2c1c(-c1ccsc1)cn2[C@@H]1O[C@H](CO)[C@@H](O)[C@H]1O

>  <IC50>
8.56 µM

$$$$
>  <compoundSmiles>
Cc1ncnc2c1c(-c1ccco1)cn2[C@@H]1O[C@H](CO)[C@@H](O)[C@H]1O

>  <IC50>
0.07 µM

$$$$
>  <compoundSmiles>
Nc1nc(N)c2c(-c3cccs3)cn([C@@H]3O[C@H](CO)[C@@H](O)[C@H]3O)c2n1

>  <IC50>
> 20 µM

$$$$
>  <compoundSmiles>
Nc1nc2c(c(-c3ccco3)cn2[C@@H]2O[C@H](CO)[C@@H](O)[C@H]2O)c(=O)[nH]1

>  <IC50>
> 20 µM

$$$$
>  <compoundSmiles>
O=c1[nH]cnc2c1c(-c1ccsc1)cn2[C@@H]1O[C@H](CO)[C@@H](O)[C@H]1O

>  <IC50>
> 20 µM

$$$$
>  <compoundSmiles>
Cc1nc(N)c2c(-c3ccco3)cn([C@@H]3O[C@H](CO)[C@@H](O)[C@H]3O)c2n1

>  <IC50>
> 20 µM

$$$$
